Biological target: T1, TPP-5521, recombinant IL3Ra aa20-305 (extracellular domain of IL3Ra, R&D Systems) (murine (printed under Origin in Table …, UniProt P26951 20-305))
T1 construct: Bought antigen; also called soluble IL3Ralpha; IL3Ra protein
T1 sequence: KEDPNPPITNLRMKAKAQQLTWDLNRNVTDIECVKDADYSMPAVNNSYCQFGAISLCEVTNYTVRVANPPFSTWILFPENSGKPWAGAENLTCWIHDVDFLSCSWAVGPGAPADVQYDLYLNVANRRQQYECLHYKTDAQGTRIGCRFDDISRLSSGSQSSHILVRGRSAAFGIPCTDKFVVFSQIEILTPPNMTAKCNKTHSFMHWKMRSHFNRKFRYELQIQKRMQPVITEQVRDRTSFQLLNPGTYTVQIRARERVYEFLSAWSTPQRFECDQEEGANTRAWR
Experiment: SPR (Biacore T200), antibody captured by anti-human Fc, IL3Ra ECD as analyte, 1:1 Langmuir fit, 25 °C
Assay Metric: Kd (nM)

INSERT INTO assay_data (binder, observed) VALUES
  ('TPP-8988 (antibody, human IgG1, kappa, V domains shown, Humanized variant of 12F1 (IGKV3-20 / IGHV3-66 frameworks), human IgG1 kappa) VH: EVQLLESGGGLVQPGGSLRLSCAVSDYSITSGYYWNWIRQAPGKKLEWMGYISYDGSNNYNPSLKNGRITISRDTSKNTFYLQMNSLRAEDTAVYYCARGEGFYFDSWGQGTLVTVSS VL: EIVLTQSPGTLSLSPGERATLSCKSSQSLFFGSTQKNYLAWYQQKPGQAPRLLIYWASTRESGIPDRFSGSGSGTDFTLTISRLEPEDFAVYYCQQYYNYPWTFGQGTKLEIKR', 0.33),
  ('TPP-9476 (antibody, human IgG1, kappa, V domains shown, Humanized and germlined variant of 7G3, human IgG1 kappa) VH: QVQLVQSGAEVKKPGSSVKVSCKASGGTFSDYYMKWVRQAPGQGLEWMGDIIPSNGATFYNQKFKGRVTITADESTSTAYMELSSLRSEDTAVYYCARSHLLRASWFAYWGQGTLVTVSS VL: DIVMTQSPDSLAVSLGERATINCESSQSVLNSGNQKNYLTWYQQKPGQPPKLLIYWASTRESGVPDRFSGSGSGTDFTLTISSLQAEDVAVYYCQNDYSYPYTFGQGTKLEIKR', 7.2),
  ('TPP-6013 (antibody, human IgG1, kappa, V domains shown, Chimeric antibody: murine 12F1 variable domains with human IgG1 kappa constant regions; also called antiCD123-12F1-hIgG1Kappa; chimeric variant of 12F1) VH: QVQLQESGPGLVKPSQSLSLTCSVTDYSITSGYYWNWIRQFPGNKLEWMGYISYDGSNNYNPSLKNRISITRDTSKNQFFLKLSSVTTEDTATYYCSRGEGFYFDSWGQGTTLTVSS VL: DIMMSQSPSSLAVSVGEKFTMTCKSSQSLFFGSTQKNYLAWYQQKPGQSPKLLIYWASTRESGVPDRFTGSGSGTDFTLAISSVMPEDLAVYYCQQYYNYPWTFGGGTKLEIKR', 0.8),
  ('TPP-8987 (antibody, human IgG1, kappa, V domains shown, Humanized and germlined variant of 7G3, human IgG1 kappa) VH: QVQLVQSGAEVKKPGSSVKVSCKASGGTFSDYYMKWVRQAPGQGLEWMGDIIPSNGATFYNQKFKGQVTITADESTSTAYMELSSLRSEDTAVYYCARSHLLRASWFAYWGQGTLVTVSS VL: DIVMTQSPDSLAVSLGERATINCESSQSVLNSGNQKNYLTWYQQKPGQPPKLLIYWASTRESGVPDRFSGSGSGTDFTLTISSLQAEDVAVYYCQNDYSYPYTFGQGTKLEIKR', 1.24);

Where these numbers come from: patent US20190330357A1
